experiment: F(I) concentration in the tumors; assay type: in vivo; details: female, BALB/c nu/nu, mouse, tumor, iv, 12 mg/kg, 6 hours after the last treatment; F(I) 12 mg/kg intravenously; two tumors from two different mice
measuredEndpoint: concentration at 6 h (ng/g)
The reply should be a number in ng/g, with the unit left off.

Exam item: Given CO[C@@H]([C@@H]1Cc2cc3cc(O[C@H]4CC(O[C@H]5CC(O)[C@H](O)C(C)O5)[C@H](O)C(C)O4)c(C)c(O)c3c(O)c2C(=O)[C@H]1O[C@H]1CC(O[C@H]2CC(O[C@H]3CC(O)[C@H](O)C(C)O3)[C@@H](O)C(C)O2)[C@H](O)C(C)O1)[C@@H](O)C(C)=O (stereo partly shown) , respond with its concentration at 6 h.
Marked response: 3800
